# koff per entry
Study System: T1, monomeric recombinant human Notch3 extracellular domain (containing EGF like domains 1-11) fusion protein (human, UniProt Q9UM47 40-467)
T1 construct: domain: EGF like domains 1-11; also called monomeric rhNotch3
T1 sequence (looked up): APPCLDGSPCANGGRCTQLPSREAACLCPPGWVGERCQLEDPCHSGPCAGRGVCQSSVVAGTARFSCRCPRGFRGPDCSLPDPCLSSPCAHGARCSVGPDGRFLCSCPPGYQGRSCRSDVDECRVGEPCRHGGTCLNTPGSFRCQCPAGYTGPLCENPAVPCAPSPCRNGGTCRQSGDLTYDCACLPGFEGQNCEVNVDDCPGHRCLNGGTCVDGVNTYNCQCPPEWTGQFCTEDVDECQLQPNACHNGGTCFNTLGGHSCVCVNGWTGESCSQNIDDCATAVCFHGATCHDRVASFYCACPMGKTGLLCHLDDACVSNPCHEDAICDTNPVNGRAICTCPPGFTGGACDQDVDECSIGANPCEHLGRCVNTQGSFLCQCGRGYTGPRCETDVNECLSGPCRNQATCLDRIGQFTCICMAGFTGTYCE
Test Details: SPR BIAcore T100, antibody captured by anti-human IgG Fc, monomeric rhNotch3 analyte, 37 C
Reply numerically in s⁻¹, unit not repeated.

A selection of reference data follows.
Binder	koff [s⁻¹]
Hu4F11-72 (antibody, human IgG1, kappa, V domains shown, Humanized, human IgG1 kappa; Hv3-23 S31H T62S heavy + Kv2D-29 N28H kappa) VH: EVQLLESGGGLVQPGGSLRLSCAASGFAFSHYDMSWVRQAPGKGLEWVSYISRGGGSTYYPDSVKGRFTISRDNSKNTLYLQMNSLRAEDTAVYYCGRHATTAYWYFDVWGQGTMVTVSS VL: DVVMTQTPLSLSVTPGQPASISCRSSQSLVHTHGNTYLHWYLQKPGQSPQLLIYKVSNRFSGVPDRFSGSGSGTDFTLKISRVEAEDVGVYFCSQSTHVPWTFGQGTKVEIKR	0.00094
Hu4F11-69 (antibody, human IgG1, kappa, V domains shown, Humanized, human IgG1 kappa; Hv3-23 A28T S31N T62S heavy + Kv2D-29 N28H kappa) VH: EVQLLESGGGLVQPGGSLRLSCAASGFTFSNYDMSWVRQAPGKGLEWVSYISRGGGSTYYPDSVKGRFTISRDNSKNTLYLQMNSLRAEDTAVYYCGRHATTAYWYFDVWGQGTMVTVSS VL: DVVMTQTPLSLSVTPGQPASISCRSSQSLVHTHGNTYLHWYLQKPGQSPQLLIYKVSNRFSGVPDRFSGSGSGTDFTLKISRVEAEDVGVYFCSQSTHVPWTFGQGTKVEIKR	0.0038
Hu4F11-32 (antibody, human IgG1, kappa, V domains shown, Humanized, human IgG1 kappa; Sh4F11 Hv3-23 heavy + Hu4F11 Kv2D-29 kappa) VH: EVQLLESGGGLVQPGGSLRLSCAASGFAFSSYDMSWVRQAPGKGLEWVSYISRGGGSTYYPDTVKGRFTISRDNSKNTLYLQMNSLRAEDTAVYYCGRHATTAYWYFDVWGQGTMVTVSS VL: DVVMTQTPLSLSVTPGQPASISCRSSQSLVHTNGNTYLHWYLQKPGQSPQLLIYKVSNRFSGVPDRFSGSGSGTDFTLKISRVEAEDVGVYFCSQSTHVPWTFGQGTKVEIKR	0.0046
Hu4F11-75 (antibody, human IgG1, kappa, V domains shown, Humanized, human IgG1 kappa; Hv3-23 A28T T62S heavy + Kv2D-29 N28Y kappa) VH: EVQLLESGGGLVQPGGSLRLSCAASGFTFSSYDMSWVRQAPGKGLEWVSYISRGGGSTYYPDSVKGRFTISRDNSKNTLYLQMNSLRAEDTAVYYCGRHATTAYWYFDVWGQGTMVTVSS VL: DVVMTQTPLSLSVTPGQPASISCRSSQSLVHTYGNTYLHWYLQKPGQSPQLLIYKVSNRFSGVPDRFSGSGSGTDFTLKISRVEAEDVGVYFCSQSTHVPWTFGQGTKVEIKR	0.009

# context switch: different binder, same koff
In: What value of koff has been reported for the following binder? Hu4F11-79 (antibody, human IgG1, kappa, V domains shown, Humanized, human IgG1 kappa; Hv3-23 A28T T62S heavy + Kv2D-29 N28Q kappa) VH: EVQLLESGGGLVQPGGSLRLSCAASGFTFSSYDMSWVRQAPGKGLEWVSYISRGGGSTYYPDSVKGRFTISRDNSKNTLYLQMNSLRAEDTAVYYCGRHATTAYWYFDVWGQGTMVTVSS VL: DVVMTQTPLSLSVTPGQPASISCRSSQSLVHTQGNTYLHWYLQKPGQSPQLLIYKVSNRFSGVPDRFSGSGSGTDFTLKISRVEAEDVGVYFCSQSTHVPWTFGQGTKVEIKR
Out: 0.006
